Record form. Attribute: Percent Effect. Fill in for each entry.
- Test system: Wolbachia pipientis
- assay summary: Anti-Wolbachia Cell-Based Screen
- Type: functional
- Set-up: scale not given: in the data most compounds retested in dose-response had high values
- details: 5 µM
The whole screen tested about 48,000 compounds, of which about 13,000 (27%) showed an effect of 50% or more. Some of the results follow.
Answers are plain numbers, in %.

Below are worked cases with known answers.
- compound: "Cc1ncc(CNC2CC(=O)N(CCc3cccc(Cl)c3)C2)n1C (stereo unspecified)"
  Percent Effect (%): 82.2
- compound: "Cn1ncc2c(N[C@H]3CC[C@@H](N)CC3)nc(C(C)(C)C)nc21"
  Percent Effect (%): -50.36
- compound: "Cc1n[nH]c(CN2CCN(CC3CC3)[C@@H]3CS(=O)(=O)C[C@@H]32)n1"
  Percent Effect (%): 6.272
- compound: "CC(C)N1CCC(c2cnc(-c3cncnc3)cn2)CC1"
  Percent Effect (%): 77.04
- compound: "CCc1nc(NC2CCN(CC(=O)NC3CC3)CC2)c2cnn(C)c2n1"
  Percent Effect (%): 85.47

# batch size: 6; output Percent Effect per entry
1. COCc1nc(NCC2CCS(=O)(=O)C2)c2cnn(C)c2n1 (stereo unspecified)
2. CCc1nc(NCC2CCCN(C(=O)C3CC3)C2)c2cnn(C)c2n1 (stereo unspecified)
3. Cn1ncc2c(NC3CCCN(C(=O)C4CC4)C3)nc(C(C)(C)C)nc21 (stereo unspecified)
4. Cn1ncc2c(N[C@H]3CCCC[C@@H]3O)nc(C(C)(C)C)nc21
5. CC(SCCS(C)(=O)=O)c1nc(Cc2ccc(F)cc2)no1 (stereo unspecified)
6. COCCN1CC(Nc2nc(C3CCCC3)nc3c2cnn3C)CC1=O (stereo unspecified)

Response:
[14.43, 149.3, 108.6, 2.356, -13.13, -0.7638]

---

- Tested on: Wolbachia pipientis
- assay summary: Anti-Wolbachia Cell-Based Screen
- Format: functional
- Set-up: scale not given: in the data most compounds retested in dose-response had high values
- details: 5 µM
Out of some 48,000 compounds screened, about 13,000 (27%) showed an effect of 50% or more. Some of the results follow.
Record form. Attribute: Percent Effect. Fill in for each entry.
Answers are plain numbers, in %.

Below are worked cases with known answers.
- compound: "O=C(C1CC=CC1)N1CCc2ncnc(-c3ccncc3)c2CC1"
  Percent Effect, %: 8.097
- compound: "N#Cc1ccnc(N2CCC(NCCN3CCCC3)CC2)c1"
  Percent Effect, %: 4.204
- compound: "CN(Cc1ccccc1NCc1cscn1)C(=O)c1cccs1"
  Percent Effect, %: -0.6624

# batch size: 5; output Percent Effect per entry
1. O=C(c1cccn1Cc1cccs1)N1CCN(C2CC2)CC1
2. CC1=CCN(C(=O)Nc2ccccc2N2CCOC2=O)CC1
3. CNC(=O)c1cn2cc(-c3ccc(F)cc3)n(CC=C(C)C)c(=O)c2n1
4. Cc1cc(CC(C)Nc2ncnc3cccc(F)c23)[nH]n1 (stereo not drawn)
5. CN(CCc1ccccn1)C(=O)c1cccs1.Cl

Response:
1. 5.207
2. 8.909
3. 0.6659
4. -16.45
5. 100.7

# batch size: 2; output Percent Effect per entry
1. CCc1nnc2n1CCN(C(=O)Cc1csc(-c3ccco3)n1)C2
2. CC(C)N(Cc1ccccn1)C(=O)CN(C)C(=O)c1cccs1

Response:
1: -5.069; 2: 109.7

# batch size: 7; output Percent Effect per entry
1. CC(C)c1csc(C2CCCN(C(=O)c3ccc(=O)n(C)c3)C2)n1 (stereo not drawn)
2. O=C(c1csc(-c2cccs2)n1)N1CCN2CCCCC2C1 (stereo not drawn)
3. CC1N(CC2CC2)C(=O)COC12CCN(C(=O)c1ccno1)CC2 (stereo not drawn)
4. COC(=O)c1sc2nc3c(c(C(F)(F)F)c2c1N)CN(C(C)=O)CC3
5. Cc1nc(CNC(=O)C(C)Oc2ccccc2F)no1 (stereo not drawn)
6. CN(C)C(=O)c1cccnc1SCc1ccccc1C#N
7. CC(C)(C)c1c[nH]c([C@@H]2COCCN2C2CCC2)n1

Response:
[2.326, 1.576, -9.759, 5.653, 94.07, 100.1, -8.065]

---

- System: Wolbachia pipientis
- assay summary: Anti-Wolbachia Cell-Based Screen
- Format: functional
- Design: scale not given: in the data most compounds retested in dose-response had high values
- details: 5 µM
About 13,000 (27%) of roughly 48,000 compounds showed an effect of 50% or more. Some of the results follow.
Assign y whenever Percent Effect does not fall below 20%; assign n whenever it does.

These solved cases illustrate the format of a correct answer.
- molecule: "Cn1cc(C2CC(=O)NC23CCN(Cc2cccc(F)c2)CC3)cn1.O=C(O)C(F)(F)F (centres undefined)"
  category: "y"
- molecule: "CN(C)c1nc2c(c(N3CCC(O)CC3)n1)CN(CC(C)(C)C)CC2"
  category: "n"
- molecule: "CCN1CCCC1CNCc1cc2cc(OC)c(OC)cc2[nH]c1=O (centres undefined)"
  category: "y"

Prompt: Given N#Cc1cccc(NC2CC(=O)N(Cc3ccccc3Cl)C2)n1 (centres undefined) , state whether its Percent Effect is at least 20%.
Response: n

Prompt: Now consider Cc1cc(C)cc(OCCC(=O)NC2CC(=O)N(C)C2)c1 (centres undefined) .
Response: n

Prompt: Now consider CCN1CCCC1CN(CCN(C)C)S(=O)(=O)c1ccc(C#N)cc1 (centres undefined) .
Response: n

---

Record form. Attribute: Percent Effect. Fill in for each entry.
- System: Wolbachia pipientis
- assay summary: Anti-Wolbachia Cell-Based Screen
- Assay type: functional
- Set-up: scale not given: in the data most compounds retested in dose-response had high values
- details: 5 µM
Out of some 48,000 compounds screened, about 13,000 (27%) showed an effect of 50% or more. The list shows a part of the results.
Give bare numbers, in %.

- compound: "CCNS(=O)(=O)C1CCN(C(=O)c2ccc(F)cc2)C1 (stereo unspecified)"
  target under test: "Wolbachia pipientis"
  measurement units: "%"
  observed result: 4.07
- compound: "O=C(O)C(F)(F)F.O=C(c1ccncc1)N1C[C@@H]2CCN(c3cccnc3)C[C@@H]2C1"
  target under test: "Wolbachia pipientis"
  measurement units: "%"
  observed result: -5.49
- compound: "CCS(=O)(=O)N(C)C1CCN(C(=O)c2cccc(Cl)c2)CC1"
  target under test: "Wolbachia pipientis"
  measurement units: "%"
  observed result: -7.301

# batch size: 5; output Percent Effect per entry
1. O=C(C1CCCC1)N1C[C@@H]2CCN(c3cccnc3)C[C@@H]2C1.O=C(O)C(F)(F)F
2. CCN(C1CCN(C(=O)c2cccc(Cl)c2)CC1)S(C)(=O)=O
3. CN(C)Cc1cnc(C2CCN(C(=O)c3cccc(Cl)c3)C2)[nH]1 (stereo unspecified)
4. COCCN1CCc2ncc(CN(C)C)n2CC1
5. CCCc1cc(NC(=O)c2cccc(N3CCCNC3=O)c2)n[nH]1

Response:
[-15.19, 6.766, 128.9, -10.98, 11.29]

# batch size: 5; output Percent Effect per entry
1. O=C(Cc1ccccn1)N1CCC2(CC1)CN(CC1CC1)C(=O)CO2.O=C(O)C(F)(F)F
2. CN(C)Cc1cnc(C2CCN(C(=O)c3ccc(F)cc3)C2)[nH]1 (stereo unspecified)
3. Cc1ccc(=O)n(CC2(O)CCN(Cc3cnn(C)c3)CC2)n1
4. CC(C)C(C)(C#N)NC(=O)Cn1cc(C(N)=O)c(-c2ccccc2)n1 (stereo unspecified)
5. Cc1ccc(C(=O)N2CCCC(Nc3ccc(F)cc3)C2)cc1 (stereo unspecified)

Response:
1. 15
2. 127.5
3. 99.25
4. 12.8
5. -37.46

# batch size: 5; output Percent Effect per entry
1. CN(C)C(=O)c1ccc(N2CCC3(CCC(=O)N(CCO)C3)CC2)nc1
2. O=C(O)C(F)(F)F.O=C1COC2(CCN(CC3CC3)CC2)CN1c1ccccc1
3. CC1CN(C(=O)C2(c3ccc(F)cc3F)CCOCC2)CCO1 (stereo unspecified)
4. CCCn1nc(C)c(CNC(=O)C2COc3c(cccc3OC)C2)c1C (stereo unspecified)
5. O=C(CC1CC1)N1CCC2(CC1)CN(Cc1cccnc1)C(=O)CO2.O=C(O)C(F)(F)F

Response:
[-10.7, -2.17, -18.6, -7.419, 85.91]

---

- Test system: Wolbachia pipientis
- assay summary: Anti-Wolbachia Cell-Based Screen
- Type: functional
- Design: scale not given: in the data most compounds retested in dose-response had high values
- details: 5 µM
In all, about 48,000 compounds went through this assay and about 13,000 (27%) showed an effect of 50% or more. Some of the results follow.
Record form. Attribute: Percent Effect. Fill in for each entry.
Numbers only, in %.

- molecule: "CN1CCN([C@@H]2CCN(C3CCOCC3)[C@H]2Cc2cnn(C)c2)CC1.O=C(O)C(F)(F)F.O=C(O)C(F)(F)F.O=C(O)C(F)(F)F"
  Percent Effect (%): -4.702

# batch size: 2; output Percent Effect per entry
1. O=C(NCc1ccc(CN2CCCC2)cc1)NC1(CO)CCCC1
2. Cc1nccn1Cc1cccc(CNC(=O)c2ccn(C)c(=O)c2)c1

Response:
[-3.44, 4.832]

# batch size: 2; output Percent Effect per entry
1. O=C(CCn1cc(Cl)cn1)Nc1nncs1
2. CC1CN(c2ccc(CNC(=O)c3ccn(C)c(=O)c3)cn2)CCO1 (stereo not given)

Response:
1: -12.52; 2: -2.154
